# ASSAY_TARGET: human Factor IXa (human, UniProt P00740 47-191; P00740 227-461)
# EXPERIMENT_DESCRIPTION: cell-based or functional assay
Bridge positions count the residues as written; N and C are the ends. Square brackets hold non-standard residues; d marks the D form. Ends that are not written are not given here. * marks the point of attachment. Palmitoyl = CCCCCCCCCCCCCCCC(=O)*

# BINDER, EC50 [µM], FXa generation assay
records = [
    ("QEQPAKLTCRGSYCWLFKRGDQ", "> 50 µM"),
    ("{Palmitoyl-(PEG)27-(PEG)27}-KLTCLASYCWLF (disulfide 4-9 (inferred); not fully specified (C-terminus); printed as Palmitoyl-(PEG)27(PEG)27-KLTCLASYCWLF) [Palmitoyl-(PEG)27(PEG)27-KLTCLASYCWLF]", "> 20 µM"),
    ("RRAPAKLQCLASYCWLFWTGIA", "< 0.5 µM"),
    ("SLADTQLTWLARQYWLSVSEGS", "> 20 µM"),
    ("SAQGRPISPD[dR]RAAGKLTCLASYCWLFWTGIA (not fully specified; printed as SAQGRPISPDrRAAGKLTCLASYCWLFWTGIA; cysteine pairing not given here) [SAQGRPISPDrRAAGKLTCLASYCWLFWTGIA]", "< 0.5 µM"),
]
